- assayMethodText: Stability test in human liver microsomes
- Assay type: in vitro ADME
- condition: pH 7.4; human liver microsomes 0.5 mg/mL, test compound 2 μmol/L, 37° C., 0-30 min; read-out: Hepatic intrinsic clearance, Human
Structures can show the parent of a compound that is named as a salt.
measurementType: microsomal CLint at 2 μmol/L (µL/min/mg)
Supply the numeric figure in µL/min/mg, leaving out any unit text.

Kindly indicate its recorded microsomal CLint at 2 μmol/L. Item: CN(C)C1CCN(C(=O)CCc2nccn2C)CC1 [Comparative Example 1, hydrochloride] 1

* * *

- assayMethodText: Stability test in dog liver microsomes
- Assay type: in vitro ADME
- condition: pH 7.4; dog liver microsomes 0.5 mg/mL, test compound 2 μmol/L, 37° C., 0-30 min; read-out: Hepatic intrinsic clearance, Dog
Where a name gives a salt, the structure may show the parent alone.
measurementType: microsomal CLint at 2 μmol/L
Report as: number unit

Kindly indicate its recorded microsomal CLint at 2 μmol/L. Item: CC(C)n1ccnc1CCC(=O)N1CCC(N(C)C)CC1 [Comparative Example 6, hydrochloride] 6 µL/min/mg

* * *

Each entry below lists one item and its recorded AUC(0-inf) value.
- assayMethodText: Pharmacokinetics (PK) test in cynomolgus monkeys
- Format: in vivo, cynomolgus monkey
- condition: male, plasma; cynomolgus monkey, oral administration 1 mg/kg, single
Where a name gives a salt, the structure may show the parent alone.
Supply the numeric figure in ng·h/mL, leaving out any unit text.

CN(C)C1CCN(C(=O)CCc2nccn2C)CC1 [Comparative Example 2, sulfate monohydrate]    849

# input for lookup
Kindly indicate its recorded AUC(0-inf). Item: CN(C)C1CCN(C(=O)C[C@H](O)c2nccn2C)CC1 2730

* * *

- assayMethodText: Stability test in monkey liver microsomes
- Assay type: in vitro ADME
- condition: pH 7.4; monkey liver microsomes 0.5 mg/mL, test compound 2 μmol/L, 37° C., 0-30 min; read-out: Hepatic intrinsic clearance, Monkey
Counter-ions that a name gives are not always drawn.
Each entry below lists one item and its recorded microsomal CLint at 2 μmol/L value.
Supply the numeric figure in µL/min/mg, leaving out any unit text.

CC(C)n1ccnc1CCC(=O)N1CCC(N(C)C)CC1 [Comparative Example 6, hydrochloride]    6

# input for lookup
Kindly indicate its recorded microsomal CLint at 2 μmol/L. Item: CN(C)C1CCN(C(=O)CCc2nccn2C)CC1 [Comparative Example 1, hydrochloride] 2

* * *

- assayMethodText: Pharmacokinetics (PK) test in cynomolgus monkeys
- Type: in vivo, cynomolgus monkey
- condition: male, plasma; cynomolgus monkey, oral administration 1 mg/kg, single; read-out: t1/2 (elimination half-life in the plasma) (converted)
Counter-ions that a name gives are not always drawn.
Each entry below lists one item and its recorded half-life value.
Supply the numeric figure in h, leaving out any unit text.

CN(C)C1CCN(C(=O)CCc2nccn2C)CC1 [Comparative Example 2, sulfate monohydrate]    6.56

# input for lookup
Kindly indicate its recorded half-life. Item: CN(C)C1CCN(C(=O)C[C@H](O)c2nccn2C)CC1 7.55
